- tgt: FOXP3 (Homo sapiens, UniProt Q9BZS1)
- Construct: expressed in transfected cells
- Sequence (Q9BZS1 1-431): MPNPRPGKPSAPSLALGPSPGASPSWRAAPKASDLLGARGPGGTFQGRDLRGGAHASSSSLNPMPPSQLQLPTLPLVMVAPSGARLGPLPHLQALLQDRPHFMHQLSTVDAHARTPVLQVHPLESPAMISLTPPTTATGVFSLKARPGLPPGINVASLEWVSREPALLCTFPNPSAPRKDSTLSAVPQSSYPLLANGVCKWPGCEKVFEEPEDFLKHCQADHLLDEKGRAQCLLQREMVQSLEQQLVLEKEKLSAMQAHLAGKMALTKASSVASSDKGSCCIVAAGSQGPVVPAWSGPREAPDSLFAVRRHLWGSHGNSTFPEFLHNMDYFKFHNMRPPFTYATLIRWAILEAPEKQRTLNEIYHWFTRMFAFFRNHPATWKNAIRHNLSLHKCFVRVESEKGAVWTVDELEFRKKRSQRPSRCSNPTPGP
- assay overview: FOXP3 function inhibitory activity, NF-κB luciferase reporter in HEK293/NF-κB-RE/FOXP3 cells with TNF-alpha
- Format: cell-based
- test conditions: test drug concentration 0.01 (μM); DMSO control = 1.0
// label = 1 if Chemiluminescence intensity ratio (HEK293/NF-κB-RE/FOXP3 cells / HEK293/NF-κB-RE cells) is not less than 1, otherwise -1

Example cases with answers are listed next.
- compound: "COc1cccc2c1C(=O)c1c(O)c3c(c(O)c1C2=O)C[C@@](O)(C(=O)CO)C[C@@H]3O[C@H]1C[C@H](N)[C@H](O)[C@H](C)O1"
  tgt: "FOXP3 (Homo sapiens, UniProt Q9BZS1)"
  group: -1
- compound: "COc1cccc2c1C(=O)c1c(O)c3c(c(O)c1C2=O)C[C@@](O)(C(C)=O)C[C@@H]3O[C@H]1C[C@H](N)[C@H](O)[C@H](C)O1"
  tgt: "FOXP3 (Homo sapiens, UniProt Q9BZS1)"
  group: 1
- compound: "COc1cccc2c1C(=O)c1c(O)c3c(c(O)c1C2=O)C[C@@](O)(C(=O)CO)C[C@@H]3O[C@H]1C[C@H](N)[C@@H](O)[C@H](C)O1 [Epirubicin, epirubicin]"
  tgt: "FOXP3 (Homo sapiens, UniProt Q9BZS1)"
  group: 1

# evaluate next
Enquiry: Check if Chemiluminescence intensity ratio (HEK293/NF-κB-RE/FOXP3 cells / HEK293/NF-κB-RE cells) >= 1 (inclusive). Item: COc1cccc2c1C(=O)c1c(O)c3c(c(O)c1C2=O)C[C@@](O)(C(=O)CO)C[C@@H]3O[C@H]1C[C@H](N)[C@H](O[C@@H]2CCCCO2)[C@H](C)O1
Return: 1

* * *

- tgt: FOXP3 (Homo sapiens)
- Construct: expressed in transfected cells
- assay overview: FOXP3 function inhibitory activity, NF-κB luciferase reporter in HEK293/NF-κB-RE/FOXP3 cells with TNF-alpha
- Type: cell-based
- test conditions: test drug concentration 0.1 (μM); DMSO control = 1.0
Could you please report measured Chemiluminescence intensity ratio (HEK293/NF-κB-RE/FOXP3 cells / HEK293/NF-κB-RE cells) for the items listed next?
Give bare numbers.

Example entries begin here.
- molecule: "COc1cccc2c1C(=O)c1c(O)c3c(c(O)c1C2=O)C[C@@](O)(C(C)=O)C[C@@H]3O[C@H]1C[C@H](N)[C@H](O)[C@H](C)O1"
  test value: 1.82
- molecule: "COc1cccc2c1C(=O)c1c(O)c3c(c(O)c1C2=O)C[C@@](O)(C(=O)CO)C[C@@H]3O[C@H]1C[C@H](N)[C@H](O[C@@H]2CCCCO2)[C@H](C)O1"
  test value: 1.53
- molecule: "COc1cccc2c1C(=O)c1c(O)c3c(c(O)c1C2=O)C[C@@](O)(C(=O)CO)C[C@@H]3O[C@H]1C[C@H](N)[C@@H](O)[C@H](C)O1 [Epirubicin, epirubicin]"
  test value: 1.42

Okay, next one:
Enquiry: Would you mind telling me what Chemiluminescence intensity ratio (HEK293/NF-κB-RE/FOXP3 cells / HEK293/NF-κB-RE cells) value was observed for COc1cccc2c1C(=O)c1c(O)c3c(c(O)c1C2=O)C[C@@](O)(C(=O)CO)C[C@@H]3O[C@H]1C[C@H](N)[C@H](O)[C@H](C)O1 ?
Return: 1.14
